# method description: Selectivity ratio, ratio of IC50 for MAOB to IC50 for MAOA
metric: Ratio IC50

// known answers, use as guide
smiles str	Ratio IC50
NCc1cn(-c2cccc(C(=O)O)c2)nn1	0.95
NCc1cn(-c2ccncc2)nn1	140

1. NCc1cn(-c2ccccc2)nn1
2. NCc1cn(-c2ccc(C(=O)O)cc2)nn1
### Prompt Would you kindly point out which of 1 and 2 has the smaller Ratio IC50 figure? Please identify the chosen entry by its label.
### Response 2
(2: 2.89, 1: 526)

====

# IC50 measurements, system: Amine oxidase [flavin-containing] B (Homo sapiens)
# Sequence (P27338 whole entry): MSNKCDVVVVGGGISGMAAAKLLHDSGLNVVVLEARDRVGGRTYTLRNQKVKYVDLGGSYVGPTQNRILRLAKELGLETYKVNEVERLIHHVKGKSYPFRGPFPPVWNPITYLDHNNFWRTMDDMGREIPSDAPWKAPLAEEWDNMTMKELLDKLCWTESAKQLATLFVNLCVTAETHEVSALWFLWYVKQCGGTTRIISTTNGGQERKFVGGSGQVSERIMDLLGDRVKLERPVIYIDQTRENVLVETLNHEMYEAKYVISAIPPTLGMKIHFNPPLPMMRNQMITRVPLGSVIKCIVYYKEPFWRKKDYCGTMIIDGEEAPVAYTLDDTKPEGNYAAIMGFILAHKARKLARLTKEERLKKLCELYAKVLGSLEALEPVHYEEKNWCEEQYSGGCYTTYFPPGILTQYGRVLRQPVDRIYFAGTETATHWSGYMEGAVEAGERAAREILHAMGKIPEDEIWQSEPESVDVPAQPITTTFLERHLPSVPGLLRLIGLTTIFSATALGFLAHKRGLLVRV
metric: IC50 (µM)

P. NCc1cn(-c2cccc(C(=O)O)c2)nn1
Q. NCc1cn(-c2ccccc2)nn1
### Prompt Rank P against Q by their IC50 values and give the higher one. Please identify the chosen entry by its label.
### Response Q
